# System: MOLT-4 leukemia
# METHOD DESCRIPTION: NCI tumour cell line growth inhibition, 48 h
RECORDED ENDPOINT: TGI

Measured TGI for this entry CC(C)/C(Cl)=N\OC(=O)NNc1ccccc1 on MOLT-4 leukemia: 17.7 µM

Measured TGI for this entry NNC(=O)c1cnn(-c2ccnc3c(C(F)(F)F)cccc23)c1N on MOLT-4 leukemia: > 100 µM

Measured TGI for this entry O=C(/C=C/c1cccs1)c1ccc(Cl)cc1 on MOLT-4 leukemia: 48.9 µM

Measured TGI for this entry N#Cc1c(OCCF)c2ccccc2n2c1nc1ccccc12 on MOLT-4 leukemia: > 100 µM

Measured TGI for this entry O=C1OC[C@@H]2Cc3c([nH]c4ccccc34)[C@@H](c3ccc(O)cc3)N12 on MOLT-4 leukemia: > 75.3 µM

Measured TGI for this entry CC1=C2c3ccccc3N(C(=O)/C=C/C(=O)O)[C@H]2[C@H]2C(=O)OC(=O)[C@H]2C1 on MOLT-4 leukemia: > 10 µM

Measured TGI for this entry C(=Nc1ccc(-c2nc3ccccc3s2)cc1)c1ccco1 on MOLT-4 leukemia: > 100 µM

Measured TGI for this entry Cc1nc2nnc(C)n2c2c1C(=O)Nc1ccccc1N2 on MOLT-4 leukemia: > 100 µM

Measured TGI for this entry CC(=O)/C(=C/n1c(=S)sc2ccccc21)C(=O)Nc1ccccc1C on MOLT-4 leukemia: > 100 µM

Measured TGI for this entry C[C@@H]1Cc2c([nH]c3ccccc23)[C@@H](c2c(F)cc(/C=C/C(=O)O)cc2F)N1CC(C)(C)F on MOLT-4 leukemia: 34.9 µM

Measured TGI for this entry COc1cc2c(c(O)c1C)C(=O)C(Cl)=CC2=O on MOLT-4 leukemia: 8.66 µM

Measured TGI for this entry CCCCn1/c(=N/C(=S)N(C)C)ss/c1=N\C(=S)N(C)C on MOLT-4 leukemia: > 100 µM

Measured TGI for this entry N#Cc1cnn2ccn(C3OC(COC(=O)c4ccccc4)C(OC(=O)c4ccccc4)C3OC(=O)c3ccccc3)c12 (configuration not stated) on MOLT-4 leukemia: > 21.5 µM

Measured TGI for this entry OCCNCO on MOLT-4 leukemia: > 100 µM

Measured TGI for this entry CCOC(=O)C1CC(O)C(=O)N1C (configuration not stated) on MOLT-4 leukemia: > 100 µM

Measured TGI for this entry O=C(O)/C=C/C(=O)Nc1ncn[nH]1 on MOLT-4 leukemia: > 100 µM

Measured TGI for this entry O=C(O/N=C1/CCC/C1=C\c1ccccc1)c1ccc([N+](=O)[O-])cc1 on MOLT-4 leukemia: > 100 µM

###

# Tested on: OVCAR-5 ovarian
# METHOD DESCRIPTION: NCI tumour cell line growth inhibition, 48 h
Exercise: for every item that follows, state its recorded TGI.

Noted for O=C(OCc1ccccc1)OOC(=O)OCc1ccccc1 : its TGI reads > 100 µM

Noted for COc1nc2c(cc1S(=O)(=O)c1ccccc1)CCc1c-2cnn1-c1ccccc1Cl : its TGI reads > 100 µM

Noted for CC(C)(C)C1=NC(S)NC(CCC(=O)Nc2ccccc2[N+](=O)[O-])=C1 (configuration not stated) : its TGI reads > 100 µM

Noted for COc1ccc2c(c1)C(=O)c1ccccc1C2 : its TGI reads > 100 µM

Noted for OC(c1cccc(C(F)(F)F)c1)c1cnccc1NC1CCCCCC1 (configuration not stated) : its TGI reads 3.76 µM

Noted for COc1ccc(N=Cc2cc(OC)c(OC)c(OC)c2)cc1 : its TGI reads > 100 µM

Noted for COC1C=CC23c4cc5c(cc4C(O)OC2CN(C)C3C1)OCO5 (configuration not stated) : its TGI reads 39.9 µM

Noted for C1CN2N3CCCC23C1 (configuration not stated) : its TGI reads > 100 µM

Noted for O=C(/C=C(\[O-])c1ccccc1)CCCCCCC(=O)/C=C(\[O-])c1ccccc1.O=C(/C=C(\[O-])c1ccccc1)CCCCCCC(=O)/C=C(\[O-])c1ccccc1.O=C(/C=C(\[O-])c1ccccc1)CCCCCCC(=O)/C=C(\[O-])c1ccccc1.[La+3].[La+3] : its TGI reads > 50 µM

Noted for O=C(O[C@H](/C=C/c1ccccc1)P1(=O)N(Cc2ccccc2)[C@@H]2CCCC[C@H]2N1Cc1ccccc1)c1ccccc1 : its TGI reads > 100 µM

Noted for O=C1C(C=NCCc2c[nH]c3ccccc23)C(C(F)(F)F)=NN1c1nc2ccccc2s1 (configuration not stated) : its TGI reads 78.8 µM

Noted for O=[n+]1c(CBr)c(CBr)n([O-])c2ccccc21 : its TGI reads 27.1 µM

Noted for O=c1nc2c(c(-c3cccc(Cl)c3)[nH]1)COC/C2=C\c1cccc(Cl)c1 : its TGI reads > 100 µM

Noted for COc1cc([C@@H]2c3cc4c(cc3C[C@H]3COC(=O)[C@@H]32)OCO4)cc(OC)c1OC : its TGI reads > 50 µM

Noted for O=C(O/N=C1/CCC/C1=C\c1ccccc1)c1ccc([N+](=O)[O-])cc1 : its TGI reads > 100 µM

Noted for COc1ccc(CNC(=O)COc2ccc(/C=N/Nc3nc4ccccc4s3)cc2)cc1 : its TGI reads > 100 µM

Noted for C/C(=N\NC(N)=S)c1ccc(C)cc1C : its TGI reads 94.1 µM

Noted for CN(O)C(=O)Cc1ccc(OCc2cccc(Cl)c2)cc1 : its TGI reads > 100 µM

Noted for CCOC(=O)c1cnc2[nH]ccn2c1=O : its TGI reads > 10 µM

Noted for O=C(/C=C/c1cccs1)c1ccc(Cl)cc1 : its TGI reads > 100 µM

Noted for CC(=O)c1ccc(N(/C=C/C(=O)C(F)(F)F)CC(=O)c2ccc(Cl)c(Cl)c2)cc1 : its TGI reads 35.9 µM

Noted for CN=C1NC(=O)/C(=C/c2ccc3ncccc3c2)S1 : its TGI reads > 25 µM

Noted for N#CC(C#N)=C1CCCS(=O)(=O)c2ccccc21 : its TGI reads > 100 µM

Noted for NNC(=O)c1cnn(-c2ccnc3c(C(F)(F)F)cccc23)c1N : its TGI reads > 100 µM

Noted for O=C1CSC(N2CCN(c3cccc(Cl)c3)CC2)=N1 : its TGI reads > 100 µM

Noted for COc1cccc(-c2nc(-c3cnccn3)n(Cc3ccccc3)n2)c1 : its TGI reads > 100 µM

Noted for Clc1cccc(NC=Nc2ccc(-c3nc4ccccc4s3)cc2)c1 : its TGI reads > 50 µM

Noted for CCOC(=O)C1C(=O)CC(O)(c2ccccc2)C(C(=O)OCC)C1c1ccc(OC)cc1 (configuration not stated) : its TGI reads > 100 µM

Noted for CN(C)CCNc1nc2ccccc2c2[nH]c3ccccc3c12 : its TGI reads 21.9 µM

Noted for CN(C)CCNC(=O)c1cccc2nc3c(Cl)cccc3nc12 : its TGI reads 16.7 µM

Noted for O=C1C(Cl)N(c2ccccc2)C1c1c[nH]c2ccccc12 (configuration not stated) : its TGI reads > 100 µM

Noted for N#Cc1nc(-c2ccc(F)cc2)oc1S(=O)(=O)N1CCOCC1 : its TGI reads 9.38 µM
